Blood glucose lowering rate (%) overview
# System: C57BL/6J mice
# experiment: Oral glucose tolerance test
# Format: in vivo
# conditionParameters: male C57BL/6J mice, fasted overnight; oral gavage 10 mg/kg; solvent 0.5% MC; glucose 3 g/kg orally 30 minutes after compound; area under the curve of blood glucose level relative to control group
The reply should contain only the number, in %.

structureAsSmiles: CNc1ccc(-c2ccc(OC)c(C3C4=C(CC(C)(C)CC4=O)OC4=C3C(=O)CC(C)(C)C4)c2C)nc1C(=O)NS(C)(=O)=O
resultUnits: %
observedResult: 49
//
structureAsSmiles: COc1ccc(-c2ccc(N)c(C(=O)NS(C)(=O)=O)n2)c(C)c1C1C2=C(CC(C)(C)CC2=O)OC2=C1C(=O)CC(C)(C)C2
resultUnits: %
observedResult: 34

Incoming: Assign Blood glucose lowering rate (%) to the following record: COc1ccc(-c2ccc(C)c(C(=O)NS(C)(=O)=O)n2)cc1C1C2=C(CC(C)(C)CC2=O)OC2=C1C(=O)CC(C)(C)C2.[K]
Outgoing: 52
